# Tested on: NCI-H322M
# Experiment Description: Growth inhibition of human NCI-H322M cells after 48 hrs by sulforhodamine B assay
# Assay type: functional
Metric Name: LC50

Some molecules with known LC50 results, for comparison:
Nc1cc(N)c2nc(-c3ccccc3)c(NCc3ccc(Cl)c(Cl)c3)nc2c1 = 69.2 µM
COc1cc(CNc2nc3cc(N)cc(N)c3nc2-c2ccccc2)cc(OC)c1OC = > 50.1 µM
COc1ccc(Oc2nc3cc(N)cc(N)c3nc2-c2ccccc2)cc1 = > 100 µM
Nc1cc(N)c2nc(-c3ccccc3)c(Oc3ccc(Cl)c(Cl)c3)nc2c1 = > 100 µM

Measured LC50 of Nc1cc(N)c2nc(-c3ccccc3)c(Oc3ccc(F)cc3)nc2c1 : 81.3 µM
